Assay system Estrogen receptor beta (Homo sapiens); read-out recorded as pIC50.
Just the number, please; pIC50 means minus log10 of the concentration in mol/L.

Some solved cases for reference:
>>> recorded_value("O/N=C/c1cc(O)ccc1-c1noc2cc(O)ccc12")
6.42
>>> recorded_value("C=CCc1cc(O)cc2nc(-c3ccc(O)cc3F)oc12")
8.52
>>> recorded_value("C=Cc1cc(O)cc2nc(-c3c(F)cc(O)cc3F)oc12")
8.66
>>> recorded_value("C/C=C\\c1cc(O)cc2nc(-c3ccc(O)cc3)oc12")
8.85

Could you now look at the following compound, please?
Print Estrogen receptor beta (Homo sapiens) pIC50 for C=CCc1cc(O)cc2nc(-c3ccc(O)cc3)oc12 . 7.89

Source of measurements: ChEMBL document CHEMBL1138773
